- Tested on: T1, EGFR on MDA-MB-468 cells (UniProt P00533 25-1210, limits assumed)
- T1 construct: whole, on cells; also called MDA-MB-468 tumor cell line (EGFR+, HER2-)
- Experiment summary: FACS on MDA-MB-468 cells (EGFR+, HER2-)
Measured metric: binding result

- BIIB65B03 Fab (Fab, V domains shown, Soluble human Fab from a naive phagemid Fab library) VH: EVQLLESGGGLVQPGGSLRLSCAASGFTFSWYRMNWVRQAPGKGLEWVSSIYSSGGPTNYADSVKGRFTISRDNSQNTLYLQMNSLRAEDTAVYYCTREKPDYYDSSGYLDYWGQGTLVTVSS VL: DIQMTQSPGTLSLSPGERSTLSCRASQSVSSSYLAWYQQKPGQAPRLLIYGASSRATGIPDRFSGSGSGTDFTLTISRLEPEDFGVYYCHQYGRPPVFGPGTKVDIK: no binding
- BIIB69A09 Fab (Fab, V domains shown, Soluble human Fab from a naive phagemid Fab library) VH: EVQLLESGGGLVQPGGSLRLSCAASGFTFSRYNMWWVRQAPGKGLEWVSVIRSSGGYTGYADSVKGRFTISRDNSKNTLYLQMNSLRAEDTAVYYCARWNSGYSYWDYYYGMDVWGQGTTVTVSS VL: DIQMTQSPSSLSASVGDRVTITCRASQSISSYLNWYQQKPGKAPKLLIYAASSLQSGVPSRFSGSGSGTDFTLTISSLQPEDFATYYCQQFNTYPITFGPGTKVDIK: no binding
- BIIB71F10 Fab (Fab, V domains shown, Soluble human Fab; also called Fab 71F10) VH: EVQLLESGGGLVQPGGSLRLSCAASGFTFSSYGMVWVRQAPGKGLEWVSSISSSGGLTWYADSVKGRFTISRDNSKNTLYLQMNSLRAEDTAVYYCASPPGIAVARDYWGQGTLVTVSS VL: DIQMTQSPSSLSASVGDRVTITCRASQGISNYLAWYQQKPGKVPKLLIYAASTLQSGVPSRFSGSGSGTDFTLTISSLQPEDVATYYCQKYNSALLTFGGGTKVEIK: no binding

Cited source for all entries: patent US20130101549A1
